Test system: HCV 1b-377-neo replicon cells
test_details: HCV replicon FRET assay
Type: cell-based
test_conditions: Hepatitis C virus; HCV replicon; read-out: Activity (EC50)
Collected EC50 values appear next to each entry.
parameter_measured: EC50

compound	target_of_assay	observed_measurement
CNc1ccccc1C(=O)N1CCC[C@H]1C(=O)Nc1ccc(/C=C/c2ccc(NC(=O)[C@@H]3CCCN3C(=O)c3ccccc3NC)cc2)cc1 [Example 140]	HCV 1b-377-neo replicon cells	100 to 1000 nM
O=C(Nc1ccc(/C=C/c2ccc(NC(=O)[C@@H]3CCCN3C(=O)C3CC3)cc2)cc1)[C@@H]1CCCN1C(=O)C1CC1 [Example 31]	HCV 1b-377-neo replicon cells	0.1 to 90 nM
CC(C)c1scnc1C(=O)N1CCC[C@H]1C(=O)Nc1ccc(/C=C/c2ccc(NC(=O)[C@@H]3CCCN3C(=O)c3ncsc3C(C)C)cc2)cc1 [Example 190]	HCV 1b-377-neo replicon cells	100 to 1000 nM
CC(=O)N1C[C@H](O)C[C@H]1C(=O)Nc1ccc(/C=C/c2ccc(NC(=O)[C@@H]3CCCN3C(=O)Cc3ccccc3)cc2)cc1 [Example 272]	HCV 1b-377-neo replicon cells	100 to 1000 nM
CCc1ccccc1C(=O)N1C[C@@H](N(C)C)C[C@H]1C(=O)Nc1ccc(/C=C/c2ccc(NC(=O)[C@@H]3C[C@H](N(C)C)CN3C(=O)c3ccccc3CC)cc2)cc1 [Example 228]	HCV 1b-377-neo replicon cells	1000 to 10000 nM
CCCOc1ccccc1C(=O)N1C[C@@H](N(C)C)C[C@H]1C(=O)Nc1ccc(CCc2ccc(NC(=O)[C@@H]3C[C@H](N(C)C)CN3C(=O)c3ccccc3OCCC)cc2)cc1 [Example 224]	HCV 1b-377-neo replicon cells	1000 to 10000 nM
COc1ccccc1C(=O)N1CCC[C@H]1C(=O)Nc1ccc(/C=C/c2ccc(NC(=O)[C@@H]3CCCN3C(=O)Cc3cccnc3)cc2)cc1 [Example 142]	HCV 1b-377-neo replicon cells	100 to 1000 nM
Cn1cccc1C(=O)N1CCC[C@H]1C(=O)Nc1ccc(/C=C/c2ccc(NC(=O)[C@@H]3CCCN3C(=O)c3cccn3C)cc2)cc1 [Example 121]	HCV 1b-377-neo replicon cells	0.1 to 90 nM
Cc1noc(C)c1C(=O)N1CCC[C@H]1C(=O)Nc1ccc(/C=C/c2ccc(NC(=O)[C@@H]3CCCN3C(=O)c3c(C)noc3C)cc2)cc1 [Example 202]	HCV 1b-377-neo replicon cells	100 to 1000 nM
CC(=O)N1CC=C[C@H]1C(=O)Nc1ccc(/C=C/c2ccc(NC(=O)[C@@H]3C=CCN3C(C)=O)cc2)cc1 [Example 217]	HCV 1b-377-neo replicon cells	0.1 to 90 nM

###

Test system: HCV 1b-377-neo replicon cells
test_details: HCV replicon FRET assay
Type: cell-based
test_conditions: Hepatitis C virus; HCV replicon; read-out: Activity (EC50)
Description: The HCV replicon cell line was isolated from colonies as described by Lohman, et. al. (Science 1999, 285, 110-113, expressly incorporated by reference in its entirety) and used for all experiments. The HCV replicon has the nucleic acid sequence set forth in EMBL Accession No.: AJ242652, the coding sequence of which is from nt 1801 to 7758. […]
pEC50: −log10 of the molar value.
Collected pEC50 values appear next to each entry.
parameter_measured: pEC50

compound	target_of_assay	observed_measurement
CCC(C)NC(=O)O[C@@H]1C[C@@H](C(=O)Nc2ccc(/C=C/c3ccc(NC(=O)[C@@H]4C[C@@H](OC(=O)NC(C)CC)CN4C(=O)OCc4ccccc4)cc3)cc2)N(C(=O)OCc2ccccc2)C1 (stereo partly drawn)	HCV 1b-377-neo replicon cells	5.00 to 6.00
CCc1ccccc1C(=O)N1CCC[C@H]1C(=O)Nc1ccc(/C=C/c2ccc(NC(=O)[C@@H]3CCCN3C(=O)Cc3cccnc3)cc2)cc1	HCV 1b-377-neo replicon cells	6.00 to 7.00
O=C(O)CCC(=O)N1CCC[C@H]1C(=O)Nc1ccc(/C=C/c2ccc(NC(=O)[C@@H]3CCCN3C(=O)CCC(=O)O)cc2)cc1	HCV 1b-377-neo replicon cells	6.00 to 7.00
CC(C)C(=O)N1CCC[C@H]1C(=O)Nc1ccc(/C=C/c2ccc(NC(=O)[C@@H]3CCCN3C(=O)Cc3cccs3)cc2)cc1	HCV 1b-377-neo replicon cells	7.05 to 10.00
O=C(Nc1ccc(/C=C/c2ccc(NC(=O)[C@@H]3CCCN3C(=O)c3ccsc3)cc2)cc1)[C@@H]1CCCN1C(=O)c1ccsc1	HCV 1b-377-neo replicon cells	7.05 to 10.00
CC(C)(C)OC(=O)N1CC(C(=O)N2CCC[C@H]2C(=O)Nc2ccc(/C=C/c3ccc(NC(=O)[C@@H]4CCCN4C(=O)C4CN(C(=O)OC(C)(C)C)C4)cc3)cc2)C1	HCV 1b-377-neo replicon cells	6.00 to 7.00
COCCOCC(=O)N1CCC[C@H]1C(=O)Nc1ccc(/C=C/c2ccc(NC(=O)[C@@H]3CCCN3C(=O)COCCOC)cc2)cc1	HCV 1b-377-neo replicon cells	6.00 to 7.00
CN(C)c1ccc(C(=O)N2CCC[C@H]2C(=O)Nc2ccc(/C=C/c3ccc(NC(=O)[C@@H]4CCCN4C(=O)c4ccc(N(C)C)cc4)cc3)cc2)cc1	HCV 1b-377-neo replicon cells	5.00 to 6.00
CCc1cccc(CC)c1C(=O)N1CCC[C@H]1C(=O)Nc1ccc(/C=C/c2ccc(NC(=O)[C@@H]3CCCN3C(=O)c3c(CC)cccc3CC)cc2)cc1	HCV 1b-377-neo replicon cells	5.00 to 6.00
O=C(Nc1ccc(/C=C/c2ccc(NC(=O)[C@@H]3CCCN3C(=O)Cc3ccccc3)cc2)cc1)c1ccccc1OCc1ccccc1	HCV 1b-377-neo replicon cells	5.00 to 6.00
CN(C)[C@H]1C[C@@H](C(=O)Nc2ccc(/C=C/c3ccc(NC(=O)[C@@H]4C[C@H](N(C)C)CN4C(=O)Cc4ccccc4)cc3)cc2)N(C(=O)Cc2ccccc2)C1	HCV 1b-377-neo replicon cells	7.05 to 10.00
COC(=O)N1CCC[C@H]1C(=O)Nc1ccc(/C=C/c2ccc(NC(=O)[C@@H]3CCCN3C(=O)OC)cc2)cc1	HCV 1b-377-neo replicon cells	6.00 to 7.00
